# Study target: Serine/threonine-protein kinase DCLK1 (Homo sapiens, UniProt O15075)
# Sequence (O15075 whole entry): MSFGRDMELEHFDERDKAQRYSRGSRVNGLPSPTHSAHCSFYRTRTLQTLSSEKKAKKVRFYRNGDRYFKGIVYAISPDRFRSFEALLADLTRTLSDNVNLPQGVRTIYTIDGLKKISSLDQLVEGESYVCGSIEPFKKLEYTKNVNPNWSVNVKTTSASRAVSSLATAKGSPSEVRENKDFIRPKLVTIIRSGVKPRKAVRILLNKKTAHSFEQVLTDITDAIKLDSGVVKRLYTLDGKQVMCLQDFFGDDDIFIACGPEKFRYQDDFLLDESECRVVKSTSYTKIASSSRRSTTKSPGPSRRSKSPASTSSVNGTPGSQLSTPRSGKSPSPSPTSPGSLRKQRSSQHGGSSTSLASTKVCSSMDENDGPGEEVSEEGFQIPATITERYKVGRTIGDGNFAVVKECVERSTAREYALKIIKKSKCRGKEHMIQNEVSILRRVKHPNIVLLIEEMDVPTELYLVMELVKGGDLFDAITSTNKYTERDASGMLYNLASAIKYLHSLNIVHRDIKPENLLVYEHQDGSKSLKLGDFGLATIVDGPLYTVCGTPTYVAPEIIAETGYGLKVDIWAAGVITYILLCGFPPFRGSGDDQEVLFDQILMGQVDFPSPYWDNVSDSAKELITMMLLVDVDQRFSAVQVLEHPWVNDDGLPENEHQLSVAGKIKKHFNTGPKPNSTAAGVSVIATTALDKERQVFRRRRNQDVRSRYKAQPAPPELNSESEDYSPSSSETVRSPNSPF
pKd: −log10 of the molar value.
Listed compounds paired with reported pKd
Reported property: pKd

> print(dat)
                                smiles.repr  reported.property     val
1  COCC(=O)NC/C=C/c1ccc2ncnc(Nc3ccc(Oc4ccc(C)nc4)c(C)c3)c2c1                pKd  < 5.00
2  CCOc1cc2ncc(C#N)c(Nc3ccc(F)c(Cl)c3)c2cc1NC(=O)/C=C/CN(C)C                pKd  < 5.00
3  NC(=O)c1ccc(-c2nc(-c3ccc4c(c3)OCO4)c(-c3ccccn3)[nH]2)cc1                pKd  < 5.00
4  Oc1ccc(-c2nc(-c3ccncc3)c(-c3ccc(F)cc3)[nH]2)cc1                pKd  < 5.00

###

# Study target: Receptor-type tyrosine-protein kinase FLT3 (Homo sapiens, UniProt P36888, D835H)
pKd: −log10 of the molar value.
Listed compounds paired with reported pKd
Reported property: pKd

> print(dat)
                                   compound  reported.property     val
1  COCC(=O)NC/C=C/c1ccc2ncnc(Nc3ccc(Oc4ccc(C)nc4)c(C)c3)c2c1 [CP-724714]                pKd  < 5.00
2  Oc1ccc(-c2nc(-c3ccncc3)c(-c3ccc(F)cc3)[nH]2)cc1 [SB-202190]                pKd  < 5.00

###

# Study target: UniProt:Q9UK32
# Sequence (Q9UK32 whole entry): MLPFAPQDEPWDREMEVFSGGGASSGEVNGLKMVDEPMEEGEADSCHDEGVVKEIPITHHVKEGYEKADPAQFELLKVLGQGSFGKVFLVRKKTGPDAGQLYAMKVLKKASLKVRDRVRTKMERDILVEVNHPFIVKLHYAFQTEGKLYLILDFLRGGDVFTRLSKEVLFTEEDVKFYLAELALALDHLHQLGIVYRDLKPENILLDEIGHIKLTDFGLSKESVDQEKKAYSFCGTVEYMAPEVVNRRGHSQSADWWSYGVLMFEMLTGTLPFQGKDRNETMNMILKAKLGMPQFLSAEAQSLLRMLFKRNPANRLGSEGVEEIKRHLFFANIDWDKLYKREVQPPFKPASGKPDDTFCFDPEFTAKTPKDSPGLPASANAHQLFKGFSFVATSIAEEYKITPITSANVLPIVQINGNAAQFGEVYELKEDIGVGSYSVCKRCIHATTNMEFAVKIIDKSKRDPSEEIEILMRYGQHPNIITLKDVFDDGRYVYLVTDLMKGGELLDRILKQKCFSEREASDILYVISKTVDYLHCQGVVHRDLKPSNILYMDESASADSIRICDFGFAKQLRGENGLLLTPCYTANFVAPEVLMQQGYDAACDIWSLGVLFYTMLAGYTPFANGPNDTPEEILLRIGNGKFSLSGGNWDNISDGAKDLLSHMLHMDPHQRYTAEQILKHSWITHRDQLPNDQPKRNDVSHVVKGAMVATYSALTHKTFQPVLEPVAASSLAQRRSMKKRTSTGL
Listed compounds paired with reported Kd
Reported property: Kd

> print(dat)
                                smiles.repr    study.target      val
1  COCC(=O)NC/C=C/c1ccc2ncnc(Nc3ccc(Oc4ccc(C)nc4)c(C)c3)c2c1  UniProt:Q9UK32  > 10 µM
2  CCOc1cc2ncc(C#N)c(Nc3ccc(F)c(Cl)c3)c2cc1NC(=O)/C=C/CN(C)C  UniProt:Q9UK32  > 10 µM
3  Oc1ccc(-c2nc(-c3ccncc3)c(-c3ccc(F)cc3)[nH]2)cc1  UniProt:Q9UK32  0.27 µM

Numbers sourced from ChEMBL document CHEMBL1150977.
